Just for reference, ChEMBL document CHEMBL1201862 is where these values come from.

tested on: SK-MEL-28; assay: NCI tumour cell line growth inhibition, 48 h
Activity calls are given as the source filed them. Cut-off read from the data, not from the text of the source: active = GI50 up to about 1.1 µM and inactive = higher.
Each item that follows carries a reported GI50.

| compound | GI50 |
| --- | --- |
| O=C(CCCNc1nc(-c2ccccc2)cs1)c1cccs1 | > 100 µM (inactive) |
| COC(=O)C(/C(=N/NC(N)=O)C(=O)Nc1ccc(C)cc1)c1nc2ccc([N+](=O)[O-])cc2nc1O (stereo unspecified) | > 100 µM (inactive) |
| O=C(/C=C/c1ccc2c(c1)OCO2)CC(=O)C(=O)c1c[nH]c2ccccc12 | > 100 µM (inactive) |
| Cc1cc(C)c(NC(=S)NC(=O)c2ccccc2)cc1C | > 100 µM (inactive) |
| COC(=O)c1cc(C#Cc2cc(OC)ccc2OC)ccc1OC | > 100 µM (inactive) |
| C1CCC(N=C2N(C3CCCCC3)C(=NC3CCCCC3)N2C2CCCCC2)CC1 | > 100 µM (inactive) |
| COC1OC2COC(c3ccccc3)OC2C(O)C1Br (stereo unspecified) | > 100 µM (inactive) |
| Oc1cc(/C=C/c2ccccc2)nc2cc3c(cc12)OCO3 | 8.65 µM (inactive) |
| CC(C)(NO)/C(=N\O)c1ccco1 | > 100 µM (inactive) |
| CCOC(OC1=CCCC1)C(C)[Se]c1ccccc1 (stereo unspecified) | 42.1 µM (inactive) |
| O=C1OCCC12CN(Cc1ccccc1)N=N2 (stereo unspecified) | > 100 µM (inactive) |

----------
test system: HCT-15
Each item that follows carries a reported GI50.
measurement_name: GI50

| compound | experimental_target | value_observed |
| --- | --- | --- |
| CCS[C@H]1NC(=O)C1[C@H](C)O[Si](C)(C)C(C)(C)C (stereo not given in full) | HCT-15 | > 100 µM |
| CCOC(=O)c1cn2c(n1)sc1cc(OC)ccc12 | HCT-15 | 3.89 µM |
| CCOC(=O)C(CCN1CCC2(CC1)C(=O)N(C)CN2c1ccccc1)C(=O)OCC | HCT-15 | > 100 µM |
| CC1(C)C(CBr)=[N+]([O-])C(C)(C)N1O | HCT-15 | 2.55 µM |
| Cn1c(=O)c2nc(CS(=O)(=O)Cc3nc4c(=O)n(C)c(=O)n(C)c4[nH]3)[nH]c2n(C)c1=O | HCT-15 | > 100 µM |

----------
tested on: SK-MEL-28; assay: NCI tumour cell line growth inhibition, 48 h
The source made the active and inactive calls. No stated cut-off is given here; in the data, active = GI50 up to about 1.1 µM and inactive = higher.
Outcome codes: active, inactive

| molecule | discrete_label |
| --- | --- |
| CCOC(=O)N1[C@@H]2CCC[C@@H]2C(=O)[C@@H]2CCC[C@@H]21 | inactive |
| COc1ccc(N2C(Cl)C(=O)C2c2c[nH]c3ccccc23)cc1 (stereo not drawn) | inactive |
| C=C1C(=O)OC2C3C(=C)[C@@H](OC(C)=O)CC3C(C)=CC(OC(=O)C(C)(O)C(C)OC(C)=O)[C@@H]12 (stereo partly drawn) | inactive |
| Cc1ccccc1NC(=O)Cc1csc(N/N=C2\C(=O)Nc3ccccc32)n1 | active |
| Cc1cc(=O)c2cc(/N=C/c3ccc([N+](=O)[O-])o3)ccc2o1 | inactive |
| CC(=O)OCC1OC(OCCCOP(=O)(OCCC#N)OCC2OC(n3cnc4c(N)ncnc43)C(OC(=O)c3ccccc3)C2OC(=O)c2ccccc2)C(OC(C)=O)C(OC(C)=O)C1OC(C)=O (stereo not drawn) | inactive |
| C/C=C1/C(=O)O[C@]23C=C[C@@H]4C(C(=O)OC)=CO[C@H](O[C@@H]12)[C@@H]43 [PLUMERICIN] | active |
| C/C(=N\NC(N)=S)c1sc(-n2nc(-c3ccccc3)cc2-c2ccccc2)nc1C | inactive |
